Target: Neuropeptide FF receptor 1 (Homo sapiens, UniProt Q9GZQ6, F311A)
Sequence (Q9GZQ6 whole entry F311A): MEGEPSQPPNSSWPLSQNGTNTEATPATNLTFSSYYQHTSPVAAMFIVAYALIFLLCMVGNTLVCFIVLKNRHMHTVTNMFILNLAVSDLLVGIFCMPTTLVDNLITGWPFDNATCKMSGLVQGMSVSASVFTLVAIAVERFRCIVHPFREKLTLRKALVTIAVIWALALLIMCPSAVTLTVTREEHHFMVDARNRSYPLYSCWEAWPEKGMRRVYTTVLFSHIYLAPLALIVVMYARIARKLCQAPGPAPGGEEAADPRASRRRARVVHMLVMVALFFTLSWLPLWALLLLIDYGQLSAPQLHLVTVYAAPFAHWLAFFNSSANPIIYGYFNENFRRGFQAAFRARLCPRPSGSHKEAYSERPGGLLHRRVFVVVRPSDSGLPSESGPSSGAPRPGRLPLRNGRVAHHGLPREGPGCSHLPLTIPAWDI
Assay: Agonist activity at human NPFF1 receptor F/Y7.35A mutant assessed as [3H]inositol phosphate accumulation after 2 hrs by liquid scintillation counting
measured.endpoint: EC50 (µM)
# value in µM; strip the unit string

NC(=O)[C@H](Cc1ccccc1)NC(=O)[C@H](CCCN=C(N)N)NC(=O)C12CC3CC(CC(C3)C1)C2 yielded EC50 of 0.462

###

Listing of entries alongside the reported pEC50.
Target: Neuropeptide FF receptor 1 (Homo sapiens)
Test: Agonist activity at human NPFF1 receptor expressed in […] assessed as [3H]inositol phosphate accumulation after 2 hrs by liquid scintillation counting
Assay type: functional, cell-based, COS-1
The quantity pEC50 is defined as the negative base-10 logarithm of the molar concentration.

Some compounds with recorded pEC50:
input.smiles | measured.target | measured.endpoint | observed.value
N=C(N)N/N=C/c1ccc(-c2ccc(Br)cc2C(F)(F)F)o1 | Neuropeptide FF receptor 1 (Homo sapiens) | pEC50 | 5.25
N=C(N)N/N=C/c1ccc(Cl)c(C(F)(F)F)c1 | Neuropeptide FF receptor 1 (Homo sapiens) | pEC50 | 5.63
NC(=O)[C@H](Cc1ccccc1)NC(=O)[C@H](CCCN=C(N)N)NC(=O)C12CC3CC(CC(C3)C1)C2 | Neuropeptide FF receptor 1 (Homo sapiens) | pEC50 | 7.15

N=C(N)N/N=C/c1ccc(Br)c(Br)c1 yielded pEC50 of 6.28

Measured values drawn from ChEMBL document CHEMBL2163262 for this set.
